READOUT_KIND: melting point

In: Can you share its melting point? I mean this compound: "COc1ccc(C(=O)CC(=O)c2snc(Cl)c2Cl)cc1"
Out: 138 to 139 °C

In: Can you share its melting point? I mean this compound: COC(=O)C(C#N)C(=O)c1snc(Cl)c1Cl (centres unmarked)
Out: 119 to 122 °C

In: Can you share its melting point? I mean this compound: "CCOCOc1ccc(C(=O)CC(=O)c2snc(Cl)c2Cl)cc1"
Out: 174 °C

In: Can you share its melting point? I mean this compound: "O=C(CC(=O)c1snc(Cl)c1Cl)c1ccc(O)cc1"
Out: 224 to 227 °C

In: Can you share its melting point? I mean this compound: "COc1ccc(S(=O)(=O)N(C(=O)c2snc(Cl)c2Cl)c2ccc(Cl)cc2)cc1"
Out: 154 to 158 °C
